src = patent US7781445B2

tested on: HOP-62; experiment: COMPARE screening (NCI), GI50 in HOP-62; conditions: human
measuredEndpoint: GI50 (µM)

>>> print(df.to_string())
                                   compound  targetentity  recordedvalue
0  COc1cc2c(c(OC)c1OC)-c1ncc3cc(OC)c(OC)c(OC)c3c1C2.Cl [Compound 9ec, Hydrochloride]        HOP-62           28.5

###

system: SF-539; assay: COMPARE screening (NCI), GI50 in SF-539
measuredEndpoint: GI50 (nM)

>>> df
                                   compound  measuredendpoint  recordedvalue
0  COc1cc2c[n+](CCCNC(C)=O)c3c(c2cc1OC)C(=O)c1cc2c(cc1-3)OCO2 [Compound 6ab]              GI50           96.8

###

tested on: SF-539; assay: COMPARE screening (NCI), GI50 in SF-539; conditions: Homo sapiens, read-out: Cytotoxicity GI50, CNS SF-539
Listed here are compounds together with their documented GI50.
measuredEndpoint: GI50 (µM)

>>> df
                                   compound  unittext  qualifieroperator  recordedvalue
0  COc1ccc2c(c1OC)-c1ncc3c(OC)ccc(OC)c3c1C2.Cl [Compound 9da, Hydrochloride]        µM                  =             14
1  Cl.c1c2c(cc3c1OCO3)-c1ncc3cc4c(cc3c1C2)OCO4 [Compound 9bb, Hydrochloride]        µM                  =          0.598
2  CC[C@@]1(O)C(=O)OCc2c1cc1n(c2=O)Cc2cc3ccccc3nc2-1 [B, camptothecin, reference compound]        µM                  =           0.01
3  COc1cc2c3c(ncc2c(OC)c1OC)-c1c(ccc2c1OCO2)C3.Cl [Compound 9cb, Hydrochloride]        µM                  =          0.869
4  COC1=C(OC)Cc2c3c(ncc2=C1)=c1cc2c(cc1=C3)OCO2.Cl [Compound 9ab, Hydrochloride]        µM                  <           0.01
5  COc1cc2c(cc1OC)-c1ncc3cc(OC)c(OC)c(OC)c3c1C2.Cl [Compound 9ca, Hydrochloride]        µM                  =             14
6  COc1cc2c(cc1OC)-c1ncc3cc4c(cc3c1C2)OCO4.Cl [Compound 9ba, hydrochloride]        µM                  =           23.4
7  COc1cc2c(cc1OC)-c1ncc3cc(OC)c(OC)cc3c1C2.Cl [Compound 9aa, Hydrochloride]        µM                  >             50

###

test system: UACC-62; assay: COMPARE screening (NCI), GI50 in UACC-62
measuredEndpoint: GI50 (µM)

                                smilesentry  recordedvalue
0  COc1cc2c[n+](CCCNC(C)=O)c3c(c2cc1OC)C(=O)c1cc2c(cc1-3)OCO2           3.43

###

tested on: HOP-62; assay: COMPARE screening (NCI), GI50 in HOP-62
measuredEndpoint: GI50 (nM)

                                smilesentry  recordedvalue
0  COc1cc2c[n+](CCCNC(C)=O)c3c(c2cc1OC)C(=O)c1cc2c(cc1-3)OCO2           1000

###

tested on: SR
measuredEndpoint: GI50

>>> print(df.to_string())
                                smilesentry  recordedvalue
0  COc1cc2c[n+](CCCNC(C)=O)c3c(c2cc1OC)C(=O)c1cc2c(cc1-3)OCO2        92.9 nM

###

Listed here are compounds together with their documented GI50.
test system: HOP-62; assay: COMPARE screening (NCI), GI50 in HOP-62; conditions: Homo sapiens, HOP-62, read-out: Cytotoxicity GI50, lung HOP-62, lung; HOP-62; concentration corresponding to 50% growth inhibition
measuredEndpoint: GI50 (µM)

>>> df
                                   compound  targetentity  measuredendpoint  qualifieroperator  recordedvalue
0  COc1cc2c(c(OC)c1OC)-c1ncc3cc4c(cc3c1C2)OCO4.Cl [Compound 9bc, Hydrochloride]        HOP-62              GI50                  =           21.7
1  COc1ccc(OC)c2c3c(ncc12)-c1cc2c(cc1C3)OCO2.Cl [Compound 9db, Hydrochloride]        HOP-62              GI50                  <           0.01
2  COc1cc2c3c(ncc2c(OC)c1OC)-c1c(ccc2c1OCO2)C3.Cl [Compound 9cb, Hydrochloride]        HOP-62              GI50                  =          0.234
3  COc1ccc2c(c1OC)-c1ncc3c(OC)ccc(OC)c3c1C2.Cl [Compound 9da, Hydrochloride]        HOP-62              GI50                  =           21.4
4  COc1cc2c(cc1OC)-c1ncc3cc(OC)c(OC)c(OC)c3c1C2.Cl [Compound 9ca, Hydrochloride]        HOP-62              GI50                  =           34.8
5  COC1=C(OC)Cc2c3c(ncc2=C1)=c1cc2c(cc1=C3)OCO2.Cl [Compound 9ab, Hydrochloride]        HOP-62              GI50                  =         0.0721
6  CC[C@@]1(O)C(=O)OCc2c1cc1n(c2=O)Cc2cc3ccccc3nc2-1 [B, camptothecin, reference compound]        HOP-62              GI50                  =           0.01
7  Cl.c1c2c(cc3c1OCO3)-c1ncc3cc4c(cc3c1C2)OCO4 [Compound 9bb, Hydrochloride]        HOP-62              GI50                  =          0.227
8  COc1cc2c(c(OC)c1OC)-c1ncc3cc(OC)c(OC)c(OC)c3c1C2.Cl [Compound 9cc, Hydrochloride]        HOP-62              GI50                  =           35.4
9  COc1ccc2c(c1OC)-c1ncc3cc(OC)c(OC)c(OC)c3c1C2.Cl [Compound 9ea, Hydrochloride]        HOP-62              GI50                  =             16

###

test system: OVCAR-3; assay: COMPARE screening (NCI), GI50 in OVCAR-3; settings: Homo sapiens, OVCAR-3, read-out: Cytotoxicity GI50, ovarian OVCAR-3, ovarian; OVCAR-3; concentration corresponding to 50% growth inhibition
GI50 strictly under 20000 nM means 1.0; at 20000 nM or over means 0.0.

>>> df
                                   compound  classname
0  COc1ccc2c(c1OC)-c1ncc3cc(OC)c(OC)c(OC)c3c1C2.Cl [Compound 9ea, Hydrochloride]        1.0
1  COc1ccc(OC)c2c3c(ncc12)-c1cc2c(cc1C3)OCO2.Cl [Compound 9db, Hydrochloride]        0.0
2  COc1cc2c3c(ncc2c(OC)c1OC)-c1c(ccc2c1OCO2)C3.Cl [Compound 9cb, Hydrochloride]        1.0
3  COc1cc2c(c(OC)c1OC)-c1ncc3cc(OC)c(OC)c(OC)c3c1C2.Cl [Compound 9cc, Hydrochloride]        1.0
4  Cl.c1c2c(cc3c1OCO3)-c1ncc3cc4c(cc3c1C2)OCO4 [Compound 9bb, Hydrochloride]        1.0
5  COc1cc2c(cc1OC)-c1ncc3cc(OC)c(OC)cc3c1C2.Cl [Compound 9aa, Hydrochloride]        0.0

###

test system: HCT-116; test: COMPARE screening (NCI), GI50 in HCT-116; conditions: human
measuredEndpoint: GI50 (µM)

                                   compound  recordedvalue
0  COc1cc2c(c(OC)c1OC)-c1ncc3cc(OC)c(OC)c(OC)c3c1C2.Cl [Compound 9ec, Hydrochloride]           27.8
